tested on: 855422-203-R-J1-PDC spheroids with HUVEC/MSC, viability; test: Anticancer human tumor 855422-203-R-J1-PDC patient-derived bladder carcinoma cell line growth inhibition [PI3K]; conditions: compound 0.0316 µM; active compounds read low
Assignment: determine reported viability, T/C for the given compounds.

In the examples that follow, each entry is paired with its recorded viability, T/C.
> print(dat)
                                   compound  experimental.readout           endpoint.result
1  Cn1nccc1Nc1nccc(-c2ccn(C(CO)c3ccc(Cl)c(F)c3)c(=O)c2)n1 (stereo not drawn)        viability, T/C   112% [middle of 4 runs]
2  CC(C)n1nc(-c2ccc3oc(N)nc3c2)c2c(N)ncnc21        viability, T/C  80.6% [middle of 4 runs]
3  CC1(C)CCC(Nc2ncc(C(F)(F)F)c(-c3c[nH]c4c(P(C)(C)=O)c(C#N)ccc34)n2)CN1 (stereo not drawn)        viability, T/C  29.6% [middle of 4 runs]
4  C=CC(=O)N1CCN(c2nc(=O)n(-c3c(C)ccnc3C(C)C)c3nc(-c4c(O)cccc4F)c(F)cc23)C(C)C1 (stereo not drawn)        viability, T/C   109% [middle of 4 runs]
5  C[C@@H](NC(=O)c1ncnc(N)c1Cl)c1ncc(C(=O)Nc2cc(C(F)(F)F)c(Cl)cn2)s1        viability, T/C   107% [middle of 4 runs]

Hey, can you go through the list below and give me viability, T/C for every item?
1. CNC(=O)c1ccc(N2C(=S)N(c3ccc(C#N)c(C(F)(F)F)c3)C(=O)C2(C)C)cc1F
2. Cn1ncc(Cl)c1-c1cc(C(=O)NC(CN)Cc2cccc(F)c2)sc1Cl (stereo not drawn)
3. C#Cc1c(F)ccc2cc(O)cc(-c3ncc4c(N5CC6CCC(C5)N6)nc(OCC56CCCN5CC(F)C6)nc4c3F)c12 (stereo not drawn)
4. CC(Nc1ncnc2nc[nH]c12)c1cc2cccc(Cl)c2c(=O)n1-c1ccccc1 (stereo not drawn)
5. CC(Cn1ccc(-c2ccc(C#N)c(Cl)c2)n1)NC(=O)c1cc(C(C)O)[nH]n1 (stereo not drawn)

Result block:
1: 110% [middle of 4 runs]; 2: 93.2% [middle of 4 runs]; 3: 110% [middle of 4 runs]; 4: 107% [middle of 8 runs]; 5: 108% [middle of 4 runs]

// each compound listed below needs its viability, T/C
1. CC(C)NCC(C(=O)N1CCN(c2ncnc3c2C(C)CC3O)CC1)c1ccc(Cl)cc1 (stereo not drawn)
2. CC(Nc1ccc2c(c1)OCCn1cc(N3C(=O)OCC3C(F)F)nc1-2)C(N)=O (stereo not drawn)
3. CCN1CCN(Cc2ccc(Nc3ncc(F)c(-c4cc(F)c5nc(C)n(C(C)C)c5c4)n3)nc2)CC1
4. Cn1ncnc1[C@H]1c2n[nH]c(=O)c3cc(F)cc(c23)N[C@@H]1c1ccc(F)cc1
5. Cc1nc(NC(=O)N2CCCC2C(N)=O)sc1-c1ccnc(C(C)(C)C(F)(F)F)c1 (stereo not drawn)

Result block:
1. 93.1% [middle of 4 runs]
2. 98.5% [middle of 8 runs]
3. 107% [middle of 4 runs]
4. 110% [middle of 4 runs]
5. 107% [middle of 8 runs]

Respectfully, I request viability, T/C for each entry included below.
1. CC1(C)CCC(CN2CCN(c3ccc(C(=O)NS(=O)(=O)c4ccc(NCC5CCOCC5)c([N+](=O)[O-])c4)c(Oc4cnc5[nH]ccc5c4)c3)CC2)=C(c2ccc(Cl)cc2)C1
2. CC(=O)c1c(C)c2cnc(Nc3ccc(N4CCNCC4)cn3)nc2n(C2CCCC2)c1=O
3. COc1c(OCCCN2CCOCC2)ccc2c3n(c(=NC(=O)c4cnc(N)nc4)nc12)CCN3

Result block:
1. 107% [middle of 4 runs]
2. 99% [middle of 4 runs]
3. 71.8% [middle of 8 runs]

###

tested on: 855422-203-R-J1-PDC spheroids with HUVEC/MSC, viability; assay: Anticancer human tumor 855422-203-R-J1-PDC cell line growth inhibition [PI3K]; conditions: second compound 1 µM; first compound 10 µM; active compounds read low;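 note: agents incubated with spheroids for one week before read-out; 100% = DMSO vehicle-treated control wells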
Give measured viability, T/C for each item. Keep answers brief.
Answers are plain numbers, in %.

Guide cases for viability, T/C, answers given:
COMPOUND	ENDPOINT RESULT
CC1(C)CCC(Nc2ncc(C(F)(F)F)c(-c3c[nH]c4c(P(C)(C)=O)c(C#N)ccc34)n2)CN1 (stereo not given) + COc1c(OCCCN2CCOCC2)ccc2c3n(c(=NC(=O)c4cnc(N)nc4)nc12)CCN3	1.25
CCCS(=O)(=O)Nc1ccc(F)c(C(=O)c2c[nH]c3ncc(-c4ccc(Cl)cc4)cc23)c1F + Cc1nc(NC(=O)N2CCCC2C(N)=O)sc1-c1ccnc(C(C)(C)C(F)(F)F)c1	0.11
CC(Cn1ccc(-c2ccc(C#N)c(Cl)c2)n1)NC(=O)c1cc(C(C)O)[nH]n1 (stereo not given) + CC(Nc1ccc2c(c1)OCCn1cc(N3C(=O)OCC3C(F)F)nc1-2)C(N)=O	28.9
CNC(=O)c1ccc(N2C(=S)N(c3ccc(C#N)c(C(F)(F)F)c3)C(=O)C2(C)C)cc1F + Cc1nc(NC(=O)N2CCCC2C(N)=O)sc1-c1ccnc(C(C)(C)C(F)(F)F)c1	61.8

Query block: Give the reported viability, T/C for this compound. CNC(=O)c1ccc(N2C(=S)N(c3ccc(C#N)c(C(F)(F)F)c3)C(=O)C2(C)C)cc1F + CC(Nc1ncnc2nc[nH]c12)c1cc2cccc(Cl)c2c(=O)n1-c1ccccc1
Result block: 69.1

###

test system: 855422-203-R-J1-PDC spheroids with HUVEC/MSC, viability; experiment: Anticancer human tumor 855422-203-R-J1-PDC cell line growth inhibition [PI3K]; conditions: compound 0.1 µM; active compounds read low;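 note: agents incubated with spheroids for one week before read-out; 100% = DMSO vehicle-treated control wells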
Would you mind telling me the reported viability, T/C of each entry?

// below: answered compounds
> print(dat)
                                   compound           endpoint.result
1  CNC(=O)c1ccc(N2C(=S)N(c3ccc(C#N)c(C(F)(F)F)c3)C(=O)C2(C)C)cc1F  99.4% [middle of 4 runs]
2  CC1(C)CCC(CN2CCN(c3ccc(C(=O)NS(=O)(=O)c4ccc(NCC5CCOCC5)c([N+](=O)[O-])c4)c(Oc4cnc5[nH]ccc5c4)c3)CC2)=C(c2ccc(Cl)cc2)C1  92.7% [middle of 4 runs]
3  Cn1nccc1Nc1nccc(-c2ccn(C(CO)c3ccc(Cl)c(F)c3)c(=O)c2)n1 (centres undefined)  99.8% [middle of 4 runs]

Here is the next item to consider.
Query block: Respond only with viability, T/C recorded for CCN1CCN(Cc2ccc(Nc3ncc(F)c(-c4cc(F)c5nc(C)n(C(C)C)c5c4)n3)nc2)CC1
Result block: 83.3% [middle of 4 runs]

###

System: 855422-203-R-J1-PDC spheroids with HUVEC/MSC, viability
Test: Anticancer human tumor 855422-203-R-J1-PDC cell line growth inhibition [PI3K]; active = viability on the fitted dose curve at most 10% of control; inactive = the rest;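 note: agents incubated with spheroids for one week before read-out; 100% = DMSO vehicle-treated control wells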
Conditions: second compound 1 µM; first compound 3 µM
Description: Combinatorial screen of targeted agents with the PI3K inhibitors inavolisib, alpelisib, duvelisib, and copanlisib in multi-cell type tumor spheroids A high-throughput screen of multi-cell type tumor spheroids was designed to identify active combinations of targeted small molecules and PI3K pathway inhibitors. […] Compounds. […] If the clinical Cmax for an agent had not been determined, the highest concentration tested was 10 microM. […]
Answer with one of the outcomes given here: 1 (yes) = active, 0 (no) = inactive

> print(dat)
                                   compound  assigned.label
1  Cn1cnc2c(F)c(Nc3ccc(Br)cc3Cl)c(C(=O)NOCCO)cc21 + Cc1nc(NC(=O)N2CCCC2C(N)=O)sc1-c1ccnc(C(C)(C)C(F)(F)F)c1          0 (no)
2  Cn1cnc2c(F)c(Nc3ccc(Br)cc3Cl)c(C(=O)NOCCO)cc21 + CC(Nc1ncnc2nc[nH]c12)c1cc2cccc(Cl)c2c(=O)n1-c1ccccc1          0 (no)
3  Cn1cnc2c(F)c(Nc3ccc(Br)cc3Cl)c(C(=O)NOCCO)cc21 + CC(Nc1ccc2c(c1)OCCn1cc(N3C(=O)OCC3C(F)F)nc1-2)C(N)=O         1 (yes)

Query block: Hey, what did the test say about Cn1cnc2c(F)c(Nc3ccc(Br)cc3Cl)c(C(=O)NOCCO)cc21 + COc1c(OCCCN2CCOCC2)ccc2c3n(c(=NC(=O)c4cnc(N)nc4)nc12)CCN3 ?
Result block: 1 (yes)

###

test system: 855422-203-R-J1-PDC spheroids with HUVEC/MSC, viability; assay: Anticancer human tumor 855422-203-R-J1-PDC cell line growth inhibition [PI3K]; conditions: second compound 0.316 µM; first compound 0.316 µM; active compounds read low;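 note: agents incubated with spheroids for one week before read-out; 100% = DMSO vehicle-treated control wells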
Param label: returns t when viability, T/C < 60%, returns f otherwise, including exact equality.

Take a look at these entries with their results.
COMPOUND	ASSIGNED LABEL
C=CC(=O)N1CCN(c2nc(=O)n(-c3c(C)ccnc3C(C)C)c3nc(-c4c(O)cccc4F)c(F)cc23)C(C)C1 (stereo unspecified) + Cc1nc(NC(=O)N2CCCC2C(N)=O)sc1-c1ccnc(C(C)(C)C(F)(F)F)c1	f
Cn1ncc(Cl)c1-c1cc(C(=O)NC(CN)Cc2cccc(F)c2)sc1Cl (stereo unspecified) + Cc1nc(NC(=O)N2CCCC2C(N)=O)sc1-c1ccnc(C(C)(C)C(F)(F)F)c1	f
CNC(=O)c1ccc(N2C(=S)N(c3ccc(C#N)c(C(F)(F)F)c3)C(=O)C2(C)C)cc1F + CC(Nc1ccc2c(c1)OCCn1cc(N3C(=O)OCC3C(F)F)nc1-2)C(N)=O	t

Query block: Please indicate whether the reported viability, T/C of CC(Cn1ccc(-c2ccc(C#N)c(Cl)c2)n1)NC(=O)c1cc(C(C)O)[nH]n1 (stereo unspecified) + CC(Nc1ncnc2nc[nH]c12)c1cc2cccc(Cl)c2c(=O)n1-c1ccccc1 is strictly below 60%.
Result block: f

Query block: For this compound, is viability, T/C lower than 60%? Cn1ncc(Cl)c1-c1cc(C(=O)NC(CN)Cc2cccc(F)c2)sc1Cl (stereo unspecified) + CC(Nc1ncnc2nc[nH]c12)c1cc2cccc(Cl)c2c(=O)n1-c1ccccc1
Result block: t

Query block: Regarding Cn1ncc(Cl)c1-c1cc(C(=O)NC(CN)Cc2cccc(F)c2)sc1Cl (stereo unspecified) + CC(Nc1ccc2c(c1)OCCn1cc(N3C(=O)OCC3C(F)F)nc1-2)C(N)=O , kindly confirm whether its viability, T/C is beneath 60%.
Result block: t
